Items are presented alongside their recorded IC50.
molecular target: MEK1 activated ERK1 (Homo sapiens, UniProt P27361); construct: purchased Millipore (Billerica, Mass.) 14-439-K; experiment: Omnia continuous-read kinase assay for potency against MEK1 activated ERK1; type: biochemical; conditions: MEK1 activated ERK1, ATP at KM; read-out: ERK1 Omnia WT ATP KM IC50
Sequence (P27361 whole entry): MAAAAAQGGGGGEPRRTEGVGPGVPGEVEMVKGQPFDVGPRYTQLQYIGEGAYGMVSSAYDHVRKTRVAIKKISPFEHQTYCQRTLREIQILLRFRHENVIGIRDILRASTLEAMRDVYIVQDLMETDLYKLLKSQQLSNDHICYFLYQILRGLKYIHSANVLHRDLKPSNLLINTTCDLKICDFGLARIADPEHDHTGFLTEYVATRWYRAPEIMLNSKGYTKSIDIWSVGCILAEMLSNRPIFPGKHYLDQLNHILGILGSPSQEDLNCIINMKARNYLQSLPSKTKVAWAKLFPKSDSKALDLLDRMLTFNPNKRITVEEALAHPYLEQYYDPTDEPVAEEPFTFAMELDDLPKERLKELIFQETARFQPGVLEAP
reported-endpoint: IC50

compound	val
C=CC(=O)Nc1ccccc1Nc1nc(Nc2cc(C(=O)NC)c(F)cc2C)ncc1C(F)(F)F	101 to 500 nM
C=CC(=O)Nc1ccccc1Nc1nc(Nc2cc(C(=O)NCCO)c(F)cc2C)ncc1Cl	101 to 500 nM
C=CC(=O)Nc1cc(OC)ccc1Nc1nc(Nc2cc(Cl)nc(OC)c2)ncc1Cl	101 to 500 nM
C=CC(=O)Nc1ccccc1Nc1nc(Nc2ccc(N(CCCNC(=O)OC(C)(C)C)C(C)=O)cc2C(F)(F)F)ncc1Cl	501 to 999 nM
C=CC(=O)Nc1cc(C)ccc1Nc1nc(Nc2cc(OC)ccc2C)ncc1C(F)(F)F	501 to 999 nM
C=CC(=O)Nc1ccccc1Nc1nc(N[C@@H]2CCC[C@H](C(=O)O)C2)ncc1C(F)(F)F (racemic)	101 to 500 nM
C=CC(=O)Nc1ccccc1Nc1nc(N[C@H]2CCCN(C(=O)[C@H](O)CO)C2)ncc1C(F)(F)F	101 to 500 nM
C=CC(=O)N(C)c1ccccc1Nc1nc(N[C@H]2CC[C@H](O)CC2)ncc1Cl	501 to 999 nM
C=CC(=O)Nc1cc(C)ccc1Nc1nc(Nc2ccnc(OC)c2)ncc1Cl	101 to 500 nM
C=CC(=O)Nc1ccccc1Nc1nc(NC2CCN(C(C)=O)CC2)ncc1Cl	101 to 500 nM
C=CC(=O)Nc1ccccc1Nc1nc(Nc2ccc(N(CC)C(C)=O)cc2OC)ncc1Cl	101 to 500 nM
C=CC(=O)Nc1ccccc1Nc1nc(N[C@H]2CCCN(C(=O)C(C)(C)O)C2)ncc1Cl	101 to 500 nM
C=CC(=O)Nc1ccccc1Nc1nc(Nc2cc(C(=O)NOCCO)ccc2C#N)ncc1C(F)(F)F	101 to 500 nM
C/C=C/C(=O)Nc1cc(F)ccc1Nc1nc(N[C@@H]2CCC[C@H](C(N)=O)C2)ncc1Cl (racemic)	> 1000 nM
C=CC(=O)Nc1ccccc1Nc1nc(Nc2cc(N[C@H]3CC[C@@H](O)CC3)nc(OC)c2)ncc1C(F)(F)F	< 100 nM
C=CC(=O)Nc1ccccc1Nc1nc(Nc2cc(F)ccc2C)ncc1C(F)(F)F	501 to 999 nM
C=CC(=O)Nc1cc(C)ccc1Nc1nc(Nc2cc(N[C@H]3CC[C@@H](O)CC3)nc(OC)c2)ncc1C(F)(F)F	101 to 500 nM
C=CC(=O)Nc1ccccc1Nc1nc(Nc2ccc(N3CCN(C(C)=O)CC3)cc2OC)ncc1C(F)(F)F	501 to 999 nM
C=CC(=O)Nc1ccccc1Nc1nc(NC2CCN(C(C)=O)CC2)ncc1C(F)(F)F	101 to 500 nM
C=CC(=O)Nc1ccccc1Nc1nc(Nc2ccc(N(CCCN)C(C)=O)cc2OC)ncc1Cl	101 to 500 nM
CC(=O)N1CCC[C@H](Nc2ncc(C(F)(F)F)c(Nc3ccccc3NC(=O)CCCl)n2)C1	101 to 500 nM
C=CC(=O)Nc1ccccc1Nc1nc(N[C@H]2CCC[C@@H](CO)C2)ncc1Cl (racemic)	< 100 nM
C=CC(=O)Nc1ccccc1Nc1nc(Nc2cncc(C(N)=O)c2)ncc1C(F)(F)F	101 to 500 nM
C=CC(=O)Nc1cc(OC)ccc1Oc1nc(Nc2ccc(N3CCC[C@@H]3CO)cc2OC)ncc1C(N)=O	> 1000 nM
